FYI, the data here is from PubChem BioAssay AID588351.

# measurement-notes: frataxin promoter-driven luciferase activation – cell-based, luminescence, HEK293 lucGAA850, triplicate, confirmation (AID 588351);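 note: 0% = DMSO wells and 100% = 10 µM SAHA wells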
# recorded-conditions: HEK293 lucGAA850 FXN promoter luciferase reporter, 24 h; at 6 µM; 100% = activation by SAHA
In all, about 1,900 compounds went through this assay and about 1,600 (84%) were called active.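 Rule for the calls: active = mean activation above a set limit taken from the primary screen (cut at about 8% in these data); inactive = the rest.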 So high a share suggests a set chosen from earlier hits. Only a sample is shown.
Outcomes: true (active), false (inactive)

{"compound": "COc1ccc(C2Nc3ccccc3C(=O)N2c2ccc(Cl)cc2)cc1Cn1cc([N+](=O)[O-])cn1 (stereo not drawn)", "label-class": "true"}
{"compound": "CC(Sc1nc2c([nH]c3ccccc32)c(=O)n1C)c1ccccc1 (stereo not drawn)", "label-class": "true"}
{"compound": "COc1ccc(/C=C/C(=O)Nc2ccc(C34CC5CC(CC(O)(C5)C3)C4)cc2)cc1OC", "label-class": "true"}
{"compound": "CCCCCOc1ccc(CSC2=NCCN2)cc1[N+](=O)[O-]", "label-class": "true"}
{"compound": "O=C(Nc1nnc(S(=O)(=O)N2CCCCCC2)s1)c1cccc(Br)c1", "label-class": "true"}
{"compound": "COc1ccc(NC(=O)CSc2nc(SC)ns2)c(OC)c1", "label-class": "true"}
{"compound": "Cc1ccc(-c2nc3ccccc3[nH]c2=O)cc1", "label-class": "true"}
{"compound": "COc1ccccc1N1CCN(C(=O)c2cc(-c3ccc(Br)cc3)on2)CC1", "label-class": "false"}
{"compound": "CC1(Cc2cccc(C#N)c2)C(=O)Nc2ccc(-c3cccc(C(F)(F)F)c3)cc21 (stereo not drawn)", "label-class": "true"}
{"compound": "O=[N+]([O-])c1ccc(C=Nc2ccc(Cl)cc2Cl)s1", "label-class": "true"}
{"compound": "N#CC1=C(SCc2ccc(C#N)cc2)N=C(N)C(c2nc(-c3ccccc3)cs2)C12CCCCC2 (stereo not drawn)", "label-class": "true"}
{"compound": "CC[C@]1(C(=O)OC)[C@H]2C(=O)N(Cc3ccccc3)C(=O)[C@H]2[C@H]2CN=C(SCc3ccc(C#N)cc3)N21", "label-class": "true"}
{"compound": "COc1cc(C#Cc2ccc3cc(CCCO)oc(=O)c3c2)cc(OC)c1", "label-class": "true"}
{"compound": "O=C(CN(c1cc(C(F)(F)F)ccc1Cl)S(=O)(=O)c1ccccc1)NCc1cccnc1", "label-class": "true"}
{"compound": "CN1C(=O)/C(=C\\c2cc(Br)cs2)c2ccccc21", "label-class": "true"}
{"compound": "CC1CCc2sc3nc(N4CCN(CCO)CC4)n4ncnc4c3c2C1 (stereo not drawn)", "label-class": "true"}
{"compound": "Cn1c(CCN2CCCCCC2)nc2cc(NC(=O)Nc3ccccc3)ccc21", "label-class": "true"}
{"compound": "CCCCc1ccc(NC(=S)N2CCCC(CO)C2)cc1 (stereo not drawn)", "label-class": "true"}
{"compound": "Cc1nnc(Sc2nc3c(c(=O)[nH]c(=O)n3C)n2Cc2ccccc2)s1", "label-class": "false"}
{"compound": "Cc1ccc(C2Nc3cccc4cccc(c34)N2)cc1", "label-class": "true"}
{"compound": "CN(C)C(=S)N=c1ssc(=S)n1Cc1ccco1", "label-class": "true"}
{"compound": "COc1ccc(Cl)cc1NC(=O)CN(C)C(=O)CCCc1c[nH]c2ccccc12", "label-class": "true"}
{"compound": "CCCNC(=O)c1c(Cl)cnn1-c1ccc(C)cc1", "label-class": "true"}
{"compound": "COc1ccccc1C1=Nc2cccc3cccc(c23)N1", "label-class": "true"}
{"compound": "CC[C@]1(C(=O)OC)[C@H]2C(=O)N(Cc3ccccc3)C(=O)[C@H]2[C@H]2CN=C(SCc3ccccc3)N21", "label-class": "false"}
{"compound": "CN(C)[C@@H]1C(=O)C(C(N)=O)=C(O)[C@@]2(O)C(=O)C3=C(O)c4c(O)ccc(Cl)c4[C@@H](O)[C@H]3C[C@@H]12", "label-class": "true"}
{"compound": "COc1ccc(-c2csc(Cc3nc(O)cs3)n2)cc1", "label-class": "false"}
{"compound": "CCN(C[C@H]1N[C@@](CC)(C(=O)OC)[C@H]2C(=O)N(Cc3ccccc3)C(=O)[C@@H]12)S(=O)(=O)c1ccc(C(F)(F)F)cc1", "label-class": "true"}
{"compound": "COCCn1c(=NC(=O)c2ccccc2[N+](=O)[O-])sc2cc(S(C)(=O)=O)ccc21", "label-class": "true"}
{"compound": "Cc1cc(C)n2nc(CNS(=O)(=O)c3c(F)c(F)c(F)c(F)c3F)nc2n1", "label-class": "true"}
{"compound": "Cc1ccc(C(=O)NNc2ncnc3ccccc23)cc1", "label-class": "true"}
{"compound": "Fc1ccccc1/C=N/Nc1cc(N2CCCCC2)ncn1", "label-class": "true"}
{"compound": "COc1cccc(Nc2nc(N)c([N+](=O)[O-])c(NCc3ccco3)n2)c1", "label-class": "true"}
{"compound": "O=C(COc1ccc(Cl)cc1Cl)NCCCNC(=O)c1cnccn1", "label-class": "false"}
{"compound": "COc1ccc2[nH]c(=O)c(CN(Cc3nnnn3CCc3ccccc3)CC3CCCO3)cc2c1 (stereo not drawn)", "label-class": "false"}
{"compound": "N#CCSc1nc2ccccc2c(=O)n1-c1ccccc1", "label-class": "true"}
{"compound": "O=C(NCCCn1ccnc1)c1cc(-c2ccccc2)on1", "label-class": "true"}
{"compound": "CN(C)CCNC(=O)c1ccc(Cl)c2cc3ccccc3nc12", "label-class": "true"}
{"compound": "CN(C(=O)c1cc2c(=O)n3ccccc3nc2s1)C1CCCCC1", "label-class": "true"}
{"compound": "O=c1oc2ccccc2cc1-c1csc(Nc2ccc(O)cc2)n1", "label-class": "true"}
{"compound": "Cc1cc(=O)oc(C)c1C(=O)NCc1ccc(F)cc1", "label-class": "false"}
{"compound": "COc1ccc(N(CCC#N)S(=O)(=O)c2ccc(Cl)cc2)cc1", "label-class": "false"}
{"compound": "CC(C)CCC(C)NC(=O)c1ccc2nccnc2c1 (stereo not drawn)", "label-class": "true"}

----------
# measurement-notes: frataxin promoter-driven luciferase activation – cell-based, luminescence, HEK293 lucGAA850, triplicate, confirmation (AID 588351);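 note: 0% = DMSO wells and 100% = 10 µM SAHA wells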
# recorded-conditions: HEK293 lucGAA850 FXN promoter luciferase reporter, 24 h; at 6 µM; hits give high values; 100% = activation by SAHA
The whole screen tested about 1,900 compounds, of which about 1,600 (84%) were called active. The set was probably picked from earlier hits. Only a sample is shown.

{"molecule": "O=C1N=C(N2CCCC2)S/C1=C\\c1cccc(Br)c1", "scale-unit": "%", "activation": 20.9}
{"molecule": "CCCCn1c(SCC(=O)NCCc2ccc(OC)c(OC)c2)nc2c1c(=O)n(C)c(=O)n2C", "scale-unit": "%", "activation": 8.75}
{"molecule": "CCOc1ccc(N2C(=O)CC(N(CCc3ccc(OC)c(OC)c3)C(=S)Nc3ccccc3)C2=O)cc1 (stereo not drawn)", "scale-unit": "%", "activation": 9.64}

----------
Measured activation, listed per entry for reference.
# measurement-notes: frataxin promoter-driven luciferase activation – cell-based, luminescence, HEK293 lucGAA850, triplicate, confirmation (AID 588351);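 note: 0% = DMSO wells and 100% = 10 µM SAHA wells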
# recorded-conditions: HEK293 lucGAA850 FXN promoter luciferase reporter, 24 h; at 6 µM; hits give high values; 100% = activation by SAHA
In all, about 1,900 compounds went through this assay and about 1,600 (84%) were called active. So high a share suggests a set chosen from earlier hits. Not all results are given here.
measurement-label: activation (%)

{"compound": "O=C(NCc1ccco1)c1ccc(Cn2c(=O)c3sccc3n(Cc3ccc(F)cc3)c2=O)cc1", "measured-number": 6.19}
{"compound": "COc1cc(/C=N/Nc2nc3ccccc3s2)ccc1O", "measured-number": 34.8}
{"compound": "COC(=O)c1ccc(CSc2nc3ccccc3c(=O)n2-c2cccc(OC)c2)o1", "measured-number": 16.6}
{"compound": "Cc1ccccc1Nc1c([N+](=O)[O-])ccc2nonc12", "measured-number": 17}
{"compound": "COc1ccc(-n2cc(-c3ccccc3)c3c(=S)nc[nH]c32)cc1", "measured-number": 11}
{"compound": "CC(C)(C)c1ccc(C(=O)NCc2ccco2)cc1", "measured-number": 44.1}
{"compound": "O=C1[C@H]2[C@@H](c3ccc(Cl)cc3)N3C(=O)N(c4cccc(F)c4)C(=O)[C@@]3(Cc3ccccc3)[C@H]2C(=O)N1C1CCCCC1", "measured-number": 11.2}
{"compound": "CC1(C(=O)NCc2cccc3ccccc23)CCN1Cc1ccc(-c2ccccc2)o1 (stereo not given)", "measured-number": 11.9}
{"compound": "Cc1ccc(NC(=O)c2sc3nc(N)c(C#N)cc3c2N)cc1", "measured-number": 27.4}
{"compound": "O=c1[nH]cnc2c1c(-c1ccccc1)cn2-c1ccc(F)cc1", "measured-number": 9.89}
